assay_remarks: folding stability dG unfold from chymotrypsin proteolysis; higher = more stable
recorded_endpoint: folding stability dG unfold (kcal/mol)
Only the number, expressed in kcal/mol, is required.

Would you please look over these solved cases?
>>> df
                              sequence_data    val
0  TLSPEEIEAEARARAEAAVAARPDSAADVELDVPVEFPVRTERRDPRSDRWSRSLSTVRLRLRLRLARGAGS [r1_90_JUSTAS]  0.343
1  SPPVSTTTPVPDPENGVVVATVTLTTDPTTGEKTLILKSPEGKTKTVTLSPDETFPVEGLPKGLTATSSVSA [r9_1150_JUSTAS]  0.437

Exercise: Using the record for SAGGSAGGSAGGTGPPPVKTLVIVANWTEEQAEALKKAFPDQEVTVYEIPGLPKTVAVVSSAGGSAGGSAGG [r17_254_TrMRF] , report its folding stability dG unfold.
Key: 1.42

Exercise: Using the record for SAGGSADPIRTISGPVPLEEIEANIKKLLKENPNLDAAVFYIPEIGSKITIYFKNGKIVKIEIDLSSAGGSA [r15_166_TrMRF] , report its folding stability dG unfold.
Key: 4.79

###

Item-by-item account of folding stability dG unfold
assay_remarks: folding stability dG unfold (combined trypsin and chymotrypsin); higher = more stable
Only the number, expressed in kcal/mol, is required.

In [3]: df
Out[3]:
                              sequence_data            recorded_endpoint      val
0  SAGGSAGGSMIEYPELTLEELKAKFEAEGYTVEEEPPTNVVTLTPPDGTPITVTVTPVPESLLSAGGSAGGS [r12_211_JUSTAS]  folding stability dG unfold    0.803
1  SAGGSAGGSAGGLPPGQKYVIKMYNPNGKRQEHEFEIPPGEPFKDFEFPNGWRYDIYPVKSAGGSAGGSAGG [r7_132_TrROS]  folding stability dG unfold   -0.321
2  SAGGSAMAYLVRAELEVEGPDGRRERLELVLVAEDLPLEEALAAAREAAAELGAELVSVEVEPLEPSAGGSA [r15_550_TrMRF]  folding stability dG unfold     2.21
3  SAGGSAGGSALDSLVPDIDLRVRVEPVPDDPSILRADVELSDGLVLEVEFLPSGVARVSLSGKGSAGGSAGG [r6_122_TrMRF]  folding stability dG unfold  -0.0927
4  SAGGSMKLKPGDEIWVPENMPEDAIKDEIKEWADNFNIKGIDDIEPPKPGWHRIKVEWPNGRKLTISAGGSA [r2_168_TrROS]  folding stability dG unfold   -0.748
5  SYTLEFEDITLKPVEPGTKISIPGYVKYDGVLYKVTEVTYDPEKGTITITIKVEPEGKPKTLTITIPIPPPS [r1_47_JUSTAS]  folding stability dG unfold     2.06

Exercise: Using the record for SAGGSAGGVVPLEELAKRLGWSPEFLRELEEKGIKVELERVTPDKVVVTLTEPGTGETKTIELPSAGGSAGG [r6_969_JUSTAS] , report its folding stability dG unfold.
Key: 3.08

Exercise: Using the record for SAGGSAGGSASLSPDEEVEITDPANGTKYKVTKLPDGTVLLENPETGETYVRTDSNDWKLTSAGGSAGGSAG [r3_96_JUSTAS] , report its folding stability dG unfold.
Key: 0.932

Exercise: Using the record for SAGGFKEIKKKLGVKKEDKVILDLEVNFGKKPKFFKVEFEVDKLEEIVKELGIPKENLKIVKAVVIKESAGG [r13_681_TrMRF] , report its folding stability dG unfold.
Key: 0.706

src = the supplement of paper PMC12764529
